Please go through the items and note down their GI50.
Tested on: UACC-257
Assay: NCI tumour cell line growth inhibition, 48 h
The source made the active and inactive calls. Rule as the data show it: active = GI50 up to about 1.1 µM and inactive = higher.

Looking up `Cc1cc(C)c(C(=O)c2no[n+]([O-])c2C(=O)c2c(C)cc(C)c(Br)c2C)c(C)c1Br` , I found its GI50 recorded as > 10 µM (inactive)

get_value(item= `Cc1cccc(C(C)C)c1NC(=O)C(=O)CC(=O)c1sc(Nc2ccccc2Cl)nc1C` , readout=GI50) returns 54.5 µM (inactive)

Reported GI50 ( `O=C(/C(=C\I)c1ccccc1)c1ccccc1` ) = 4.55 µM (inactive)

// `C/C(=N\NC(=S)N1CCCCCC1)c1cccc2cccnc12` : GI50 value = 2.58 µM (inactive)

Note to self: GI50 recorded for CC(C)=CCNc1ncnc2c1c(C#N)cn2C1OC(CO)C(O)C1O (stereo not given) was > 100 µM (inactive)

Looking up `COc1cc2c(cc1-c1coc3cc(O)ccc3c1=O)OCO2` , I see its GI50 listed as 26 µM (inactive)

GI50 measured on `Cc1ccc(S(=O)(=O)Nn2c(O)c(C#N)c(-c3ccc(Cl)cc3)c(C#N)c2=O)cc1` = > 100 µM (inactive)

`O=C1/C(=C/c2ccc3c(c2)OCCO3)CCC/C1=C\c1ccc2c(c1)OCCO2` yielded GI50 of 20.1 µM (inactive)

The molecule COP(=O)(OC)C(=O)N1N(c2ccc([N+](=O)[O-])cc2)C(=O)C(C)NC1(NNc1ccc([N+](=O)[O-])cc1)P(=O)(OC)OC (stereo not given) showed GI50 equal to > 100 µM (inactive)

According to the records, this molecule `CCN(CC)CCNc1ccc2ncn3c4ccccc4c(=O)c1c23` displays GI50 of 4.23 µM (inactive)

###

Test system: RPMI-8226
Assay: NCI tumour cell line growth inhibition, 48 h
Calls of active or inactive are those of the source. Cut-off read from the data, not from the text of the source: active = GI50 up to about 1.1 µM and inactive = higher.
Choose one outcome from this list and give only that: yes (1) for active, no (0) for inactive

INPUT: Status in this test for `C[N+](C)=c1[nH]c2ccccc2[nH]1` ?
OUTPUT: no (0)

INPUT: Hi, do you know how `NC(=O)Nc1n[nH]c(-c2ccccc2)n1` came out in this test?
OUTPUT: no (0)

INPUT: Check the results log: what was the call for COC(=O)C(=O)C(C(=O)C(=O)Nc1ccc(Cl)cc1C)c1nc2ccc(C(=O)c3ccccc3)cc2nc1O (stereo unspecified) ?
OUTPUT: no (0)

INPUT: Per the assay record, what outcome was assigned to Cc1cc(O)nc(NN2C(Cl)C(=O)C2c2ccc([N+](=O)[O-])cc2)n1 (stereo unspecified) ?
OUTPUT: no (0)

INPUT: Name the outcome recorded for `O=c1c2cc(Br)cc(Br)c2nc(CCCl)n1-c1ccc(O)c([N+](=O)[O-])c1` in the assay.
OUTPUT: no (0)

INPUT: Outcome? CC(=O)Nc1ccccc1NC1CC(C)N(c2ccccc2)N1C(C)=O (stereo unspecified)
OUTPUT: no (0)

INPUT: Please let me know the test result on file for `COC1=CC(=O)c2c(ccc3ncnc(N)c23)C1=O` .
OUTPUT: no (0)

INPUT: Returns: the outcome recorded for `Cc1cn([C@H]2C=C[C@@H](CO)O2)c(=O)[nH]c1=O` in this assay.
OUTPUT: no (0)

INPUT: Answer briefly: the call reported for NCCCCC(N)C(=O)N1CCN(c2nc(N3CCCC3)c3nc(Cl)c(NCc4ccccc4)nc3n2)CC1 (stereo unspecified) in this assay.
OUTPUT: no (0)

INPUT: Would you mind telling me which call this test gave Clc1cc2ncn(C3CCCO3)c2cc1Cl (stereo unspecified) ?
OUTPUT: no (0)

INPUT: Per the assay record, what outcome was assigned to NC1CC(=O)c2csc(Br)c21 (stereo unspecified) ?
OUTPUT: no (0)

INPUT: Assay result, entry `O=C(CC(=O)c1ccccc1NC1=Cc2ccccc2C(=O)C1=O)C(=O)NC1=C(Cl)C(=O)c2ccccc2C1=O` — outcome?
OUTPUT: no (0)

INPUT: Returns: the outcome recorded for CC(=O)NNC(=O)C1CCCCN1 (stereo unspecified) in this assay.
OUTPUT: no (0)

INPUT: Please indicate how the test categorized `CN(C(=O)c1cccs1)C(=S)N1CCN(c2ccccn2)CC1` .
OUTPUT: no (0)

INPUT: Please state the recorded outcome for this compound: Cn1c2c(c3ccccc31)C1CCCCCCC1C1C(=O)OC(=O)C21 (stereo unspecified)
OUTPUT: no (0)

INPUT: Per the records of this test, what outcome belongs to `COC(=O)c1ccc2c(O)c(O)ccc2c1` ?
OUTPUT: no (0)

INPUT: What did this assay record as the result for CC(C)=CCNc1ncnc2c1c(C#N)cn2C1OC(CO)C(O)C1O (stereo unspecified) ?
OUTPUT: no (0)

INPUT: Please share the test call associated with `Cc1nc(-n2nc(-c3ccccc3)cc2-c2ccccc2)sc1C(=O)/C=C/c1cccc([N+](=O)[O-])c1` .
OUTPUT: no (0)

INPUT: I'd appreciate the recorded outcome for `O=C(O)c1ccc2c(c1)C(=O)N(c1ccc(S(=O)(=O)c3ccc(N4C(=O)c5ccc(C(=O)O)cc5C4=O)cc3)cc1)C2=O` from this test.
OUTPUT: no (0)

INPUT: Field: outcome | Entry: `CC(C)(Oc1ccc(C(=O)c2ccc(Cl)cc2)cc1Cl)C(=O)Nc1c(Cl)cccc1Cl`
OUTPUT: no (0)

INPUT: For `CC1=C(/C=C/C(C)=C/C=C/C(C)=C/C=C/C=C(C)/C=C/C=C(C)/C=C/C=C(C)/C=C/C=C(\C)C(=O)O)C(C)(C)CCC1` , which call appears in the assay record?
OUTPUT: no (0)

INPUT: How did this test come out for `CCOc1cc2c(cc1O)CC[C@@H]1[C@@H]2CC[C@]2(C)[C@@H](O)CC[C@@H]12` ?
OUTPUT: yes (1)

INPUT: What did this assay record as the result for `C[C@]12CC[C@H]3[C@@H](CCC4=CC(=O)CC[C@@]43C)[C@@H]1CC[C@@H]2OC(=O)c1cccc2c(=O)c3ccccc3[nH]c12` ?
OUTPUT: no (0)

INPUT: What did this assay record as the result for COC1CCC2C(NS(=O)(=O)c3ccc(C)cc3)CCCC2O1.Cc1ccc(S(=O)(=O)NC(C)(C)C=O)cc1 (stereo unspecified) ?
OUTPUT: no (0)

INPUT: Hey, what did the test say about `CCCCCCCCCCCc1nnc(N)o1` ?
OUTPUT: no (0)

INPUT: Dear colleague, could you share the recorded outcome for `O=C(CCN1CCCCC1)Nc1ccc2c(c1)C(=O)c1ccc(NC(=O)CCN3CCCCC3)cc1C2=O` when you have a moment?
OUTPUT: no (0)

INPUT: In this assay, the call recorded for `O=c1cc(/C=C/c2ccccc2)c2ccc(O/C(=C\c3ccccc3)c3nc4ccccc4c(=O)o3)cc2o1` was what?
OUTPUT: no (0)

INPUT: What is the recorded call for this compound in the test? N#Cc1ccc(C(O)C(F)(F)c2nc3ccccc3o2)cc1 (stereo unspecified)
OUTPUT: no (0)

INPUT: So what was the verdict on COc1nc(NC2OCC(OC(C)=O)C(OC(C)=O)C2OC(C)=O)c(/N=C(\C)C(C)=O)c(=O)n1C (stereo unspecified) in this test?
OUTPUT: no (0)

INPUT: Test call, this compound: `Nc1ccc(-c2nc3ccccc3s2)cc1I`
OUTPUT: no (0)

INPUT: What did this assay record as the result for `CN(C)C(=O)Oc1c(-c2ccccc2)c(=O)n2c3ccccc3n3c(=O)n(C)c(=O)c1c23` ?
OUTPUT: no (0)

###

I'd be grateful if you could share measured GI50 for these entries.
Test system: UACC-257
Assay: NCI tumour cell line growth inhibition, 48 h
Activity calls are given as the source filed them. No stated cut-off is given here; in the data, active = GI50 up to about 1.1 µM and inactive = higher. Where a SMILES comes first, the peptide text is derived from it. [ ]: non-standard residue; d: D form. The star is where a group is joined. NMeF = CN[C@@H](Cc1ccccc1)C(=O)O; NMeV = CN[C@H](C(=O)O)C(C)C; Boc = CC(C)(C)OC(=O)*; OBn = c1ccc(CO*)cc1

Input CCCCCCCCCCCCCCCCCCNc1nc(=O)n(C2CC(O)C(COP(=O)(O)OCC(COP(=O)(O)OC3C(CO)OC(n4ccc(N)nc4=O)C3O)OCCCCCCCCCCCCCCCCCC)O2)cc1F (centres undefined) . Output GI50: 97.3 µM (inactive)

Short answer for `CCCCNC(=O)c1cc2c(cc1Cl)Sc1nccn1S2(=O)=O` : GI50 was > 100 µM (inactive)

GI50 reading for CN1CC2CC(C1)c1cccc(=O)n1C2 (centres undefined) : > 100 µM (inactive)

GI50 in this record for CC1(C)CCCC2CC2CCC(C)(C)C1=O (centres undefined) : 39.5 µM (inactive)

Record summary for `O=C(O)CCCc1nc2c(n1Cc1ccccc1)C(=O)c1ccccc1C2=O` : reported GI50 = 25 µM (inactive)

Reported GI50 of CC(NNC(=O)c1cc[n+]([BH2-]C#N)cc1)C(F)(F)F (centres undefined) : > 100 µM (inactive)

The compound listed as NC1CC(=O)c2csc(Br)c21 (centres undefined) has a reported GI50 of 17.3 µM (inactive)

Notebook: `CN(C(=O)CC(=O)CP(=O)(c1ccccc1)c1ccccc1)c1ccccc1` , GI50 read as > 100 µM (inactive)

The reported GI50 of the compound CC(C)[C@@H](C(=O)N1CCC[C@H]1C(=O)OCc1ccccc1)N(C)C(=O)[C@H](C(C)C)N(C)C(=O)[C@H](Cc1ccccc1)N(C)C(=O)[C@H](NC(=O)OC(C)(C)C)C(C)C (Boc-[dV][NMeF][NMeV][NMeV]P-OBn) was > 50 µM (inactive)
